All values here come from PubChem BioAssay (NCI).

- Tested on: OVCAR-3 ovarian
- Procedure details: NCI tumour cell line growth inhibition, 48 h
# reported TGI; entries follow
Number in µM, nothing else.

For orientation, consider the following solved cases.
Compound	Uom	TGI
CC(O)c1cc2c(s1)C(=O)c1c(C(C)O)csc1C2=O (stereo not given)	µM	0.135
CCCC1(CN2c3ccccc3Sc3ccc(Cl)cc32)CCN(CC)C1 (stereo not given)	µM	3.09

Task: Could you share which TGI value was measured for "CCn1cc(/C=C2\Oc3cc(OCC#N)ccc3C2=O)c2cc(OC)ccc21" ?
Result: 4.94

Task: Could you share which TGI value was measured for "O=C(c1ccc2ccccc2c1)c1nc2cc(F)ccc2[n+]([O-])c1C(F)(F)F" ?
Result: 29.9

Task: Could you share which TGI value was measured for "O=C1/C(=C\c2ccc(Br)cc2)CCCc2ccccc21" ?
Result: 65.1

Task: Could you share which TGI value was measured for COc1cccc2c1C(=O)c1c(O)c3c(c(O)c1C2=O)C[C@@](O)(C(=O)COC(=O)c1ccccc1)C[C@@H]3OC1CC(N)C(O)C(C)O1 (stereo not given in full) ?
Result: 1.42
